The values you see were collected from patent US8183252B2.

Below is a list of entries, each paired with its recorded pKi value.
Molecular target: human BACE1 (sproBACE1) (Homo sapiens)
Construct: sBACE1, corresponding to amino acids 1-454; made in house; host or cells: Sf9 insect cells (baculovirus), secreted into the medium
Sequence (P56817 22-454): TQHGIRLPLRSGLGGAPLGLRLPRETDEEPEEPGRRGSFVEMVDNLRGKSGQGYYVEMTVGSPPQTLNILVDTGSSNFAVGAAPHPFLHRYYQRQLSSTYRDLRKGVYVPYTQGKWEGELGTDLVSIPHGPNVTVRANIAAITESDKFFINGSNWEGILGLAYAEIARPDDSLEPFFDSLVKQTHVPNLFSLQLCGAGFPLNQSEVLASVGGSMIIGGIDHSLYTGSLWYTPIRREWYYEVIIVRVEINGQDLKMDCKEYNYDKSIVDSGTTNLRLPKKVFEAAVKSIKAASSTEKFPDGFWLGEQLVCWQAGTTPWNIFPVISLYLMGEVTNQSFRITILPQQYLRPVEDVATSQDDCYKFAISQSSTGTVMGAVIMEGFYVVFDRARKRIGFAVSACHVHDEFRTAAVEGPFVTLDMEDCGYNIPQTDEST
Assay: BACE-1 Peptide Hydrolysis Assay (HTRF)
Assay type: biochemical
Conditions: read-out: BACE-1 Ki
pKi: −log10 of the molar value.

INSERT INTO assay_data (compound, endpointname, result) VALUES
  ('CN1C(=N)NC(c2cc(-c3cccc(CO)c3)cs2)(C2CC2)C1=O (centres unmarked)', 'pKi', '> 5.30');

-- ask Would you kindly share the measured pKi for CN1C(=N)N[C@](C)(c2cc(-c3cc(C#N)ccc3Cl)c3sccc3c2)CC1=O ?
-- reply > 5.30

-- ask Would you kindly share the measured pKi for COc1ccccc1C(=O)NCc1ccc(Cl)cc1-c1cccc(C2(C)NC(=N)N(C)C2=O)c1 (centres unmarked) ?
-- reply > 5.30

-- ask Give its pKi value. Item: CC(C)S(=O)(=O)Nc1ccc(CN2C(=N)NC(c3ccccc3)(c3ccccc3)C2=O)cc1
-- reply > 5.30

-- ask Name the reported pKi value associated with the compound CN1C(=N)N[C@](C)(c2ccc3c(ccn3C)c2)CC1=O
-- reply > 5.30

====

Biological target: human BACE1 (sproBACE1) (Homo sapiens)
Construct: sBACE1, corresponding to amino acids 1-454; made in house; host or cells: Sf9 insect cells (baculovirus), secreted into the medium
Test: BACE-1 Peptide Hydrolysis Assay (HTRF)
Type: biochemical
Conditions: read-out: BACE-1 Ki
endpointName: Ki

Examples with answers:
INSERT INTO measurements (compound, assayedtarget, endpointname, result) VALUES
  ('N=C1NC(c2ccccc2)(c2ccccc2)C(=O)N1CC1CCN(C(=O)C2(c3ccccc3)CC2)CC1', 'human BACE1 (sproBACE1) (Homo sapiens)', 'Ki', '< 5 µM'),
  ('CN1C(=N)NC(C)(c2cc(-c3cccc(C#N)c3)cs2)C(CCN2CCCCC2)C1=O (stereo not drawn)', 'human BACE1 (sproBACE1) (Homo sapiens)', 'Ki', '< 5 µM'),
  ('CCCS(=O)(=O)N1CCC[C@H](CN2C(=N)NC(c3ccccc3)(c3ccccc3)C2=O)C1', 'human BACE1 (sproBACE1) (Homo sapiens)', 'Ki', '< 5 µM');

-- ask Reported Ki, compound CN1C(=N)N[C@](CCc2ccccc2)(C[C@H]2CCC[C@@H](Nc3ccccc3)C2)C1=O : ____
-- reply < 5 µM

-- ask // query Ki value for entry CN1C(=N)N[C@](C)(c2cc(-c3cccc(Br)c3)ns2)CC1=O
-- reply < 5 µM

-- ask Which measured Ki value corresponds to COc1cc(-c2cccc([C@@]3(C4CC4)NC(=N)N(C)C3=O)c2)ccc1O ?
-- reply < 5 µM

-- ask # lookup: Ki of N=C1NC(c2ccccc2)(c2ccccc2)C(=O)N1CC1CCOCC1
-- reply < 5 µM

-- ask Request the reported Ki associated with CN1C(=N)N[C@](C)(c2cc(-c3cccc(OC(F)(F)F)c3)ccn2)CC1=O
-- reply < 5 µM

-- ask So what does the record say about Ki for C[C@H]1C(=O)N(C)C(=N)N[C@]1(C)c1cc(-c2cc(C#N)cc(C#N)c2)cs1 ?
-- reply < 5 µM
